Biological target: T1, human CD20 (human, UniProt P11836 1-297)
T1 construct: whole, on cells; also called human B-lymphocyte-restricted differentiation antigen; Bp35
T1 sequence (looked up): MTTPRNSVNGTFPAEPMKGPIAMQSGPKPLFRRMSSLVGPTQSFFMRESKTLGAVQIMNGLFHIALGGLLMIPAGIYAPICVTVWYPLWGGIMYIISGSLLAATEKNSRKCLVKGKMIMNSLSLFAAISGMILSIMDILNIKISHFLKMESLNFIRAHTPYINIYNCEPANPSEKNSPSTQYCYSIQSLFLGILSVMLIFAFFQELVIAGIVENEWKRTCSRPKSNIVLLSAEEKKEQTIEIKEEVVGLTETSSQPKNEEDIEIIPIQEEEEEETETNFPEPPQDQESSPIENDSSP
Assay: dissociation of DyLight 488-labelled antibody from Raji cells at 37 C in excess unlabelled antibody, FACS MFI; Study 1
Set-up: unit not given here
Below, each of the binders is paired with its reported Half-life (dissociation from Raji cells) value.
Reported Endpoint: Half-life (dissociation from Raji cells)

>  <Binder>
1F5RHA x 1F5RKB12 (antibody, human IgG1, kappa, V domains shown, also called RHA x RKB12; Variant F) VH: QVQLVQSGAEVKKPGASVKVSCKASGYTFTSYNMHWVRQAPGQRLEWIGAIYPGNGDTSYNQKFKGRVTVTRDTSANTAYMELSSLKSEDTAVYYCARSHYGSNYVDYFDYWGQGTLVTVSS VL: EIVLTQSPGTLSLSPGERATLSCRASSSLSFMHWYQQKPGQAPRPWIYATSNLASGIPARFSGSGSGTDYTLTISRLEPEDFAVYFCHQWSSNPLTFGQGTKVELKR

>  <Experimental Result>
72

$$$$
>  <Binder>
1F5RHA x 1F5RKB11 (antibody, human IgG1, kappa, V domains shown, also called RHA x RKB11; Variant D) VH: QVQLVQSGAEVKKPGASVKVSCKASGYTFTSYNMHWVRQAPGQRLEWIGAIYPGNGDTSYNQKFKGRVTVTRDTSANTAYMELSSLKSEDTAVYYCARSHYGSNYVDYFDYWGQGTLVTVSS VL: EIVLTQSPSSLSASVGDRVTITCRASSSLSFMHWYQQKPGKAPKPWIYATSNLASGVPSRFSGSGSGTDYTLTISSLQPEDFATYFCHQWSSNPLTFGGGTKVEIKR

>  <Experimental Result>
44

$$$$
>  <Binder>
1F5RHA x 1F5RKG11 (antibody, human IgG1, kappa, V domains shown, also called RHA x RKG11; 1F5RKG11 x 1F5RHA) VH: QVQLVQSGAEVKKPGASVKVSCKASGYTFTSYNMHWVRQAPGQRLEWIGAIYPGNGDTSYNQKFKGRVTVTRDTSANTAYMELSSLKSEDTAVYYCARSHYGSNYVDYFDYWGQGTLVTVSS VL: EIVLTQSPSSLSASVGDRVTITCRASSSLSFMHWYQQKPGKAPKPLIYATSNLASGVPSRFSGSGSGTDFTLTISSLQPEDFATYYCHQWSSNPLTFGGGTKVEIKR

>  <Experimental Result>
67

$$$$
>  <Binder>
rituximab (antibody, V domains shown) VH: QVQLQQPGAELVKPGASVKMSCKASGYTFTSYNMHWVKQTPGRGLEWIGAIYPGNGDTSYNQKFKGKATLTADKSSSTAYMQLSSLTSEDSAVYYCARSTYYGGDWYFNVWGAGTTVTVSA VL: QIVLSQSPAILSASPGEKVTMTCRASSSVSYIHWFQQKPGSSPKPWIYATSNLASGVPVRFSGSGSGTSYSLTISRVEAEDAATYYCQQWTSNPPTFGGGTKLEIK

>  <Experimental Result>
24

$$$$
>  <Binder>
chimeric antibody c1F5 (c1F5VH x c1F5VK) (antibody, human IgG1, kappa, V domains shown, Mouse 1F5 variable regions on human gamma1 / kappa constant regions; also called chimeric 1F5) VH: QVQLRQPGAELVKPGASVKMSCKASGYTFTSYNMHWVKQTPGQGLEWIGAIYPGNGDTSYNQKFKGKATLTADKSSSTAYMQLSSLTSEDSAVYYCARSHYGSNYVDYFDYWGQGTLVTVST VL: QIVLSQSPAILSASPGEKVTMTCRASSSLSFMHWYQQKPGSSPKPWIYATSNLASGVPARFSGSGSGTSYSLTISRVEAEDAATYFCHQWSSNPLTFGAGTKVEIKR

>  <Experimental Result>
59

$$$$
>  <Binder>
1F5RHA x 1F5RKF12 (antibody, human IgG1, kappa, V domains shown, also called RHA x RKF12; 1F5RKF12 x 1F5RHA) VH: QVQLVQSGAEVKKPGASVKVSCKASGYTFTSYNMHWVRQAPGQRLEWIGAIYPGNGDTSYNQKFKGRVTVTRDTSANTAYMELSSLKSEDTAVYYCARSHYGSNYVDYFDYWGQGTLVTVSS VL: EIVLTQSPGTLSLSPGERATLSCRASSSLSFMHWYQQKPGQAPRPLIYATSNLASGIPARFSGSGSGTDFTLTISRLEPEDFAVYFCHQWSSNPLTFGQGTKVELKR

>  <Experimental Result>
67

$$$$
